Experiment: Permeability from apical to basolateral side in human Caco2 cells
Format: ADME, cell-based
Settings: Caco-2, read-out: permeability
endpoint.name: Papp A→B (×10⁻⁶ cm/s)
Please give a number only; it is taken to be in ×10⁻⁶ cm/s.

[[record]]
smiles_representation = "Cc1[nH]n(-c2ccccn2)c(=O)c1C(=O)Nc1ccccc1[N+](=O)[O-]"
reported = 11.2

[[record]]
smiles_representation = "Cc1[nH]n(-c2ccccn2)c(=O)c1-c1ccc(C(F)(F)F)cc1"
reported = 3.1

[[record]]
smiles_representation = "COc1cccc(NC(=O)c2c(C)[nH]n(-c3ccccn3)c2=O)c1"
reported = 9

[[record]]
smiles_representation = "Cc1[nH]n(-c2nccs2)c(=O)c1-c1ccccc1"
reported = 23.9

[[record]]
smiles_representation = "Cc1cccc(NC(=O)c2c(C)[nH]n(-c3ccccn3)c2=O)c1"
reported = 9.9

[[record]]
smiles_representation = "Cc1[nH]n(-c2ccccn2)c(=O)c1C(=O)Nc1ccccc1C(F)(F)F"
reported = 7.8

[[record]]
smiles_representation = "COc1ccc2nc(-n3nc4c(c3O)-c3ccccc3CC4)sc2c1"
reported = 12.7

[[record]]
smiles_representation = "COc1ccc(-c2c(C)[nH]n(-c3ccccn3)c2=O)cc1"
reported = 12.7

[[record]]
smiles_representation = "Cc1[nH]n(-c2ccccn2)c(=O)c1C(=O)Nc1ccc(C(F)(F)F)cc1"
reported = 0.6

[[record]]
smiles_representation = "Cc1[nH]n(-c2ccccn2)c(=O)c1C(=O)Nc1ccc([N+](=O)[O-])cc1"
reported = 7.6


Problem: Which Papp A→B value belongs to `Cc1[nH]n(-c2ccccn2)c(=O)c1-c1ccc(C#N)cc1` ?
Solution: 21.4

Problem: // next record `Oc1c2c(nn1-c1nc3ccccc3s1)CCc1ccccc1-2`
Solution: 20.8

Problem: Okay, and `CCN(CC)c1ccc(/C=C2\C(=O)N(c3ccccn3)N=C2C)cc1` ?
Solution: 0.3

Problem: Param item: `Cc1[nH]n(-c2nc3ccc(F)cc3s2)c(=O)c1-c1ccccc1`
Solution: 16.8

Problem: Proceed to `Cc1ccc(NC(=O)c2c(C)[nH]n(-c3ccccn3)c2=O)cc1`
Solution: 6.1

Problem: How about this molecule: `Cc1nn(-c2nc3ccccc3[nH]2)c(O)c1-c1ccccc1`
Solution: 10.1

Problem: Could you do the same for `Cc1[nH]n(-c2ccccn2)c(=O)c1-c1ccc(F)cc1` , please?
Solution: 11.2

Problem: What about `Cc1ccc2nc(-n3nc4c(c3O)-c3ccccc3CC4)sc2c1` ?
Solution: 5.2

Problem: Note, next up: `Cc1[nH]n(-c2ccccn2)c(=O)c1-c1ccc([N+](=O)[O-])cc1`
Solution: 3.5

Problem: Now the molecule `Cc1[nH]n(-c2ccccn2)c(=O)c1-c1cccc(C(F)(F)F)c1`
Solution: 7

Problem: Please answer likewise for `Cc1[nH]n(-c2ccccn2)c(=O)c1C(=O)Nc1cccc(C(F)(F)F)c1`
Solution: 4.5

Problem: Now the same for `Oc1c2c(nn1-c1ccccn1)CCc1cc(Br)ccc1-2`
Solution: 3.2

====

Here, each record is paired with measured Papp A→B data.
Assay: Permeability from apical to basolateral side in human Caco2 cells
Assay type: ADME, cell-based
Conditions: Caco-2, read-out: permeability
Answer in ×10⁻⁶ cm/s, number only, no unit symbol.

[[record]]
smiles_representation = "Cc1[nH]n(-c2ccccn2)c(=O)c1C(=O)Nc1ccccc1"
measurement_unit = "×10⁻⁶ cm/s"
reported = 10.4

[[record]]
smiles_representation = "Cc1[nH]n(-c2ccccn2)c(=O)c1C(=O)Nc1ccc2c(c1)OCO2"
measurement_unit = "×10⁻⁶ cm/s"
reported = 9.3

[[record]]
smiles_representation = "Oc1c2c(nn1-c1ccccn1)CCc1ccccc1-2"
measurement_unit = "×10⁻⁶ cm/s"
reported = 8.9

[[record]]
smiles_representation = "Oc1c2c(nn1-c1ccccn1)CCc1cc(-c3ccccc3)ccc1-2"
measurement_unit = "×10⁻⁶ cm/s"
reported = 0.1


Problem: I have this compound here, `COc1ccc(NC(=O)c2c(C)[nH]n(-c3ccccn3)c2=O)cc1F` , and I need its recorded Papp A→B.
Solution: 6.6

====

Assay: Permeability from basolateral to apical side in human Caco2 cells
Assay type: ADME, cell-based
Details: Caco-2, read-out: permeability
endpoint.name: Papp B→A (nm/s)
Reply numerically in nm/s, unit not repeated.

Check out these entries, answers already filled in.
[[record]]
smiles_representation = "Cc1[nH]n(-c2nc3ccc(F)cc3s2)c(=O)c1-c1ccccc1"
measurement_unit = "nm/s"
reported = 201

[[record]]
smiles_representation = "COc1ccc(-c2c(C)[nH]n(-c3ccccn3)c2=O)cc1"
measurement_unit = "nm/s"
reported = 163

[[record]]
smiles_representation = "Cc1[nH]n(-c2ccccn2)c(=O)c1-c1ccc(C#N)cc1"
measurement_unit = "nm/s"
reported = 278

[[record]]
smiles_representation = "Oc1c2c(nn1-c1nc3ccccc3s1)CCc1ccccc1-2"
measurement_unit = "nm/s"
reported = 240

[[record]]
smiles_representation = "Oc1c2c(nn1-c1ccccn1)CCc1cc(Br)ccc1-2"
measurement_unit = "nm/s"
reported = 76

[[record]]
smiles_representation = "CCN(CC)c1ccc(/C=C2\\C(=O)N(c3ccccn3)N=C2C)cc1"
measurement_unit = "nm/s"
reported = 6


Problem: Item `Cc1[nH]n(-c2ccccn2)c(=O)c1C(=O)Nc1ccccc1` has what recorded Papp B→A?
Solution: 196

Problem: Same question, `Cc1[nH]n(-c2ccccn2)c(=O)c1-c1ccc(F)cc1` this time
Solution: 159

Problem: And the next one, `Cc1[nH]n(-c2nccs2)c(=O)c1-c1ccccc1` ?
Solution: 238

Problem: Cool, now `COc1ccc2nc(-n3nc4c(c3O)-c3ccccc3CC4)sc2c1`
Solution: 167

====

Measured Papp B→A of individual entries
Assay: Permeability from basolateral to apical side in human Caco2 cells
Format: ADME, cell-based
Conditions: Caco-2, read-out: permeability
Reply numerically in ×10⁻⁶ cm/s, unit not repeated.

Example compounds with recorded Papp B→A:
[[record]]
smiles_representation = "Cc1cccc(NC(=O)c2c(C)[nH]n(-c3ccccn3)c2=O)c1"
reported = 15.6

[[record]]
smiles_representation = "COc1cccc(NC(=O)c2c(C)[nH]n(-c3ccccn3)c2=O)c1"
reported = 15.4

[[record]]
smiles_representation = "COc1ccc(NC(=O)c2c(C)[nH]n(-c3ccccn3)c2=O)cc1F"
reported = 13.2

[[record]]
smiles_representation = "Cc1[nH]n(-c2ccccn2)c(=O)c1C(=O)Nc1ccc2c(c1)OCO2"
reported = 20.8

[[record]]
smiles_representation = "Oc1c2c(nn1-c1ccccn1)CCc1cc(-c3ccccc3)ccc1-2"
reported = 0.9

[[record]]
smiles_representation = "Cc1[nH]n(-c2ccccn2)c(=O)c1-c1ccc([N+](=O)[O-])cc1"
reported = 5.6


Problem: # Papp B→A lookup, item `N#Cc1ccc2c(c1)CCc1nn(-c3ccccn3)c(O)c1-2`
Solution: 13.1

Problem: Quick one: `Cc1[nH]n(-c2ccccn2)c(=O)c1-c1cccc(C(F)(F)F)c1`
Solution: 5.8

Problem: // same read-out, input: `Oc1c2c(nn1-c1ccccn1)CCc1ccccc1-2`
Solution: 11.7

Problem: Also check `Cc1nn(-c2nc3ccccc3[nH]2)c(O)c1-c1ccccc1`
Solution: 13.5

====

Test: Permeability from apical to basolateral side in human Caco2 cells
Type: ADME, cell-based
Settings: Caco-2, read-out: permeability
endpoint.name: Papp A→B (×10⁻⁶ cm/s)
Provide only the numeric value, understood in ×10⁻⁶ cm/s.

Guide cases for Papp A→B, answers given:
[[record]]
smiles_representation = "Cc1nn(-c2nc3ccccc3s2)c(O)c1-c1ccccc1"
endpoint_name = "Papp A→B"
measurement_unit = "×10⁻⁶ cm/s"
reported = 6.7

[[record]]
smiles_representation = "Cc1nn(-c2ccccn2)c(O)c1-c1ccccc1"
endpoint_name = "Papp A→B"
measurement_unit = "×10⁻⁶ cm/s"
reported = 8.2


Problem: Consider the compound shown here: `Oc1c2c(nn1-c1nc3ccc(F)cc3s1)CCc1ccccc1-2` What is its recorded Papp A→B?
Solution: 4.3

Problem: Ok, now `Oc1c2c(nn1-c1nc3ccccc3[nH]1)CCc1ccccc1-2`
Solution: 5.1

Problem: Now give it for `N#Cc1ccc2c(c1)CCc1nn(-c3ccccn3)c(O)c1-2` too.
Solution: 2.3

====

Experiment: Permeability from basolateral to apical side in human Caco2 cells
Assay type: ADME, cell-based
Settings: Caco-2, read-out: permeability
endpoint.name: Papp B→A (×10⁻⁶ cm/s)
Record the value in ×10⁻⁶ cm/s, omitting the unit from your answer.

Below, each entry is followed by its recorded Papp B→A result.
[[record]]
smiles_representation = "Cc1ccc(NC(=O)c2c(C)[nH]n(-c3ccccn3)c2=O)cc1"
reported = 15.3

[[record]]
smiles_representation = "Cc1[nH]n(-c2ccccn2)c(=O)c1C(=O)Nc1ccccc1[N+](=O)[O-]"
reported = 15.5

[[record]]
smiles_representation = "Oc1c2c(nn1-c1nc3ccccc3[nH]1)CCc1ccccc1-2"
reported = 6.3


Problem: What does the data say about its Papp B→A? Entry: `Cc1ccc2nc(-n3nc4c(c3O)-c3ccccc3CC4)sc2c1`
Solution: 3.4

Problem: Param item: `Cc1nn(-c2ccccn2)c(O)c1-c1ccccc1`
Solution: 16.7

Problem: Quick one: `Cc1[nH]n(-c2ccccn2)c(=O)c1-c1ccc(C(F)(F)F)cc1`
Solution: 7.9

Problem: Proceed to `Cc1[nH]n(-c2ccccn2)c(=O)c1C(=O)Nc1ccc(C(F)(F)F)cc1`
Solution: 3.9

Problem: // repeat for `Cc1nn(-c2nc3ccccc3s2)c(O)c1-c1ccccc1` and report
Solution: 6.6

Problem: Also `Cc1[nH]n(-c2ccccn2)c(=O)c1C(=O)Nc1cccc(C(F)(F)F)c1` ?
Solution: 8.9
